Target: HLA-E*01:01 on T2E cells (human | human (endogenous in T2))
Experiment: flow cytometry on cells; peptide stabilization on T2E cells (peptide 18 h at 37 °C), then 1 h with Brefeldin A 10 µg/mL, washed; HLA-E surface level (mAb 3D12) at 0, 2, 4 and 6 h at 37 °C; decrease taken as dissociation of the peptide from HLA-E
Parameter: DT50 (incubation time for 50% of the p:HLA-E complexes to decay, with Brefeldin A). Scope: all listed entries.
EXPERIMENTAL ENDPOINT: DT50 (incubation time for 50% of the p:HLA-E complexes to decay, with Brefeldin A)

[
  {
    "BINDER": "SKGKIYPVGY [SY10 peptide]",
    "MEAS VALUE": "> 6 h"
  },
  {
    "BINDER": "LVDSGAQVSVVHPNL [LNL15 peptide]",
    "MEAS VALUE": "> 4 h"
  },
  {
    "BINDER": "LGHPDTLNQGEFKEL [LEL15 peptide]",
    "MEAS VALUE": "> 6 h"
  },
  {
    "BINDER": "VMAPRTLIL [VIL9 peptide]",
    "MEAS VALUE": "> 6 h"
  },
  {
    "BINDER": "DVHDGKVVSTHEQ [DQ13 peptide]",
    "MEAS VALUE": "> 6 h"
  }
]
